Ki: recorded values
Target: human V1a receptor (Homo sapiens, UniProt P37288)
Construct: expressed in transfected cells; host or cells: HEK293 cells, transiently transfected; cell membranes
Sequence (P37288 whole entry): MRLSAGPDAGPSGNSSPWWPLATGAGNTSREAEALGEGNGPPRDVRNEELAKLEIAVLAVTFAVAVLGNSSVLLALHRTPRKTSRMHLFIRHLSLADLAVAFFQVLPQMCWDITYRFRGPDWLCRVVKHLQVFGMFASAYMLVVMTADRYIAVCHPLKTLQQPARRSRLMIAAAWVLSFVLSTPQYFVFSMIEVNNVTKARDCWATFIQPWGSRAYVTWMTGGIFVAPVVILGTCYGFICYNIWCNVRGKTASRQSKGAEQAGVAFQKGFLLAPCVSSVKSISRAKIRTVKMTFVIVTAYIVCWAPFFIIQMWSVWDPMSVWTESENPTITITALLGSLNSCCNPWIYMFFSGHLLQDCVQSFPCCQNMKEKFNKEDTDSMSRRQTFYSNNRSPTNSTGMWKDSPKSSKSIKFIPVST
Experiment: human V1a receptor binding study (3H-Vasopressin, SPA beads)
Conditions: membranes of HEK293 cells transiently transfected with human V1a receptor, Ki calculated using the Cheng-Prussoff equation, read-out: pKi hV1a (converted)
Unit nM implied. Number only.

Recorded Ki, per entry:
# MOLECULE, OUTPUT_UNIT, Ki
records = [
    ("O=C(CNC(c1ccccc1)c1ccc(C(F)(F)F)cc1)N1CCC2(CC1)OCc1ccccc12 (racemic) [Example 18]", "nM", 20.9),
    ("O=C(CNC(c1cccc(Cl)c1)c1ncco1)N1CCC2(CC1)OCc1ccccc12 (racemic) [Example 68]", "nM", 8.51),
    ("O=C(CN[C@@H](c1ccccc1)c1ccc(Cl)cc1)N1CCC2(CC1)OCc1ccccc12 (single isomer, unassigned) [Example 4]", "nM", 20.4),
    ("O=C(CNC(c1ccccc1)c1cccc(Cl)c1)N1CCC2(CC1)OCc1ccccc12 (racemic) [Example 8]", "nM", 14.8),
    ("Cc1cccc(C(NCC(=O)N2CCC3(CC2)OCc2ccccc23)c2ccccc2)c1 (racemic) [Example 34]", "nM", 18.6),
    ("O=C(Nc1ccc(Cl)cc1)[C@H](NCC(=O)N1CCC2(CC1)OCc1ccccc12)c1ccccc1 [Example 31]", "nM", 42.7),
]

Proceeding to the next molecule to report its Ki.
For O=C(CNC(c1ccc(F)cc1)c1cccc(C(F)(F)F)c1)N1CCC2(CC1)OCc1ccccc12 (racemic) [Example 13] , what is its reported Ki?
29.5

---

Target: human V1a receptor (Homo sapiens, UniProt P37288)
Construct: expressed in transfected cells; host or cells: HEK293 cells, transiently transfected; cell membranes
Test: human V1a receptor binding study (3H-Vasopressin, SPA beads)
Details: membranes of HEK293 cells transiently transfected with human V1a receptor, Ki calculated using the Cheng-Prussoff equation, read-out: pKi hV1a (converted)
Method: The human V1a receptor was cloned by RT-PCR from total human liver RNA. The coding sequence was subcloned in an expression vector after sequencing to confirm the identity of the amplified sequence. […] Cell membranes were prepared from HEK293 cells transiently transfected with the expression vector and grown in 20 liter fermenters with the following protocol. […]
# strict inequality: Ki < 20 nM yields label 1, everything else yields label 0

Field: example entries. Status: answers known.
# COMPOUND, LABEL
data = [
    ("CN(CC(=O)N1CCC2(CC1)OCc1ccccc12)C(c1ccccc1)c1ccccc1", "label 0"),
    ("O=C(CNC(c1ccccc1)c1cccc(C(F)(F)F)c1)N1CCC2(CC1)OCc1ccccc12 (racemic)", "label 0"),
    ("Cc1n[nH]c(C)c1C(NCC(=O)N1CCC2(CC1)OCc1ccccc12)c1ccccc1 (racemic)", "label 0"),
    ("O=C(CNC(c1ccccc1)c1ccc(Cl)c(Cl)c1)N1CCC2(CC1)OCc1ccccc12 (racemic)", "label 1"),
    ("O=C(CN[C@@H](C(=O)N1CC(O)C1)c1ccccc1)N1CCC2(CC1)OCc1ccccc12", "label 0"),
    ("O=C(CNC(c1ccccc1)c1cc(Cl)ccc1O)N1CCC2(CC1)OCc1ccccc12 (racemic)", "label 1"),
    ("O=C(CNC(c1ccccc1)c1cccs1)N1CCC2(CC1)OCc1ccccc12 (racemic)", "label 1"),
]

Does this compound meet the criterion Ki < 20 nM? `O=C1OC2(CCN(C(=O)CNC(c3ccccc3)c3ccccc3)CC2)c2ccccc21`
label 0
